The values you see were collected from PubChem BioAssay AID1963432.

System: SYO-1 complex spheroid growth, percent test/control
Method Summary: Anticancer human tumor SYO-1 cell line growth inhibition [Asc];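 note: compound exposure lasted 7 days after spheroids grew 3 days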;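 for viability, T/C: 100% = DMSO vehicle control viability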
Reported Conditions: second compound 1 µM; first compound 0.1 µM; stronger effect = lower value
Property: viability, T/C (%)
Answers are plain numbers, in %.

Use these answered entries as a reference point.
O=C(c1cc(Cc2n[nH]c(=O)c3ccccc23)ccc1F)N1CCN(C(=O)C2CC2)CC1 + Cc1c(S(C)(=O)=O)c(-c2cc(F)cc(N3CCN(c4ccc(NS(=O)(=O)c5ccc(NC(CCN6CCC(C(=O)OCCCP(=O)(O)O)CC6)CSc6ccccc6)c(S(=O)(=O)C(F)(F)F)c5)cc4)CC3)c2)c(-c2ccc(Cl)cc2)n1C(C)C    108
C=C(F)C(=O)N1CCN(c2nc(OCC3CCCN3C)nc3c2CCN(c2cccc4cccc(Cl)c24)C3)CC1CC#N (stereo not drawn) + CNC(C)C(=O)NC1CN(S(=O)(=O)c2cccc(S(=O)(=O)N3CCC4CCC(C(=O)NC(c5ccccc5)c5ccccc5)N4C(=O)C(NC(=O)C(C)NC)C3)c2)CCC2CCC(C(=O)NC(c3ccccc3)c3ccccc3)N2C1=O    104

The record that follows has no viability, T/C shown yet.
-- ask Looking for the measured viability, T/C of CNC(C)C(=O)NC1CN(S(=O)(=O)c2cccc(S(=O)(=O)N3CCC4CCC(C(=O)NC(c5ccccc5)c5ccccc5)N4C(=O)C(NC(=O)C(C)NC)C3)c2)CCC2CCC(C(=O)NC(c3ccccc3)c3ccccc3)N2C1=O (stereo not drawn) + Cc1c(S(C)(=O)=O)c(-c2cc(F)cc(N3CCN(c4ccc(NS(=O)(=O)c5ccc(NC(CCN6CCC(C(=O)OCCCP(=O)(O)O)CC6)CSc6ccccc6)c(S(=O)(=O)C(F)(F)F)c5)cc4)CC3)c2)c(-c2ccc(Cl)cc2)n1C(C)C , can you help?
-- reply 90.5

---

Test system: SYO-1 complex spheroid growth, percent test/control
Method Summary: Anticancer human tumor SYO-1 cell line growth inhibition [Asc];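 note: compound exposure lasted 7 days after spheroids grew 3 days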;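 for viability, T/C: 100% = DMSO vehicle control viability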
Reported Conditions: second compound 0.316 µM; first compound 0.0316 µM; stronger effect = lower value
Property: viability, T/C (%)
Answers are plain numbers, in %.

NC1CCC(NC2CC2c2ccccc2)CC1 (configuration not stated) + CNC(C)C(=O)NC1CN(S(=O)(=O)c2cccc(S(=O)(=O)N3CCC4CCC(C(=O)NC(c5ccccc5)c5ccccc5)N4C(=O)C(NC(=O)C(C)NC)C3)c2)CCC2CCC(C(=O)NC(c3ccccc3)c3ccccc3)N2C1=O    86.6

The record that follows has no viability, T/C shown yet.
-- ask Looking for the measured viability, T/C of O=C(c1cc(Cc2n[nH]c(=O)c3ccccc23)ccc1F)N1CCN(C(=O)C2CC2)CC1 + CNC(C)C(=O)NC1CN(S(=O)(=O)c2cccc(S(=O)(=O)N3CCC4CCC(C(=O)NC(c5ccccc5)c5ccccc5)N4C(=O)C(NC(=O)C(C)NC)C3)c2)CCC2CCC(C(=O)NC(c3ccccc3)c3ccccc3)N2C1=O , can you help?
-- reply 98.6

---

System: SYO-1 complex spheroid growth, percent test/control
Method Summary: Anticancer human tumor SYO-1 cell line growth inhibition [Asc];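 note: compound exposure lasted 7 days after spheroids grew 3 days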;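 for viability, T/C: 100% = DMSO vehicle control viability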
Reported Conditions: second compound 0.03 µM; first compound 0.316 µM; stronger effect = lower value
Exercise: state measured viability, T/C for each of the compounds provided.
Numbers only, in %.

Use these answered entries as a reference point.
O=C(c1ccc(F)c(F)c1Nc1ccc(I)cc1F)N1CC(O)([C@@H]2CCCCN2)C1 + CCN1C(C(=O)NC23CCC(C(=O)O)(CC2)CC3)C(c2cccc(Cl)c2F)C2(C(=O)Nc3cc(Cl)ccc32)C12CCCCC2    116
C=C(F)C(=O)N1CCN(c2nc(OCC3CCCN3C)nc3c2CCN(c2cccc4cccc(Cl)c24)C3)CC1CC#N (stereo unspecified) + CCN1C(C(=O)NC23CCC(C(=O)O)(CC2)CC3)C(c2cccc(Cl)c2F)C2(C(=O)Nc3cc(Cl)ccc32)C12CCCCC2    101
COc1c(OCCCN2CCOCC2)ccc2c3n(c(=NC(=O)c4cnc(N)nc4)nc12)CCN3 + CCN1C(C(=O)NC23CCC(C(=O)O)(CC2)CC3)C(c2cccc(Cl)c2F)C2(C(=O)Nc3cc(Cl)ccc32)C12CCCCC2    69.3
CCN1CCN(Cc2ccc(Nc3ncc(F)c(-c4cc(F)c5nc(C)n(C(C)C)c5c4)n3)nc2)CC1 + CCN1C(C(=O)NC23CCC(C(=O)O)(CC2)CC3)C(c2cccc(Cl)c2F)C2(C(=O)Nc3cc(Cl)ccc32)C12CCCCC2    106
C#Cc1c(F)ccc2cc(O)cc(-c3ncc4c(N5CC6CCC(C5)N6)nc(OCC56CCCN5CC(F)C6)nc4c3F)c12 (stereo unspecified) + CCN1C(C(=O)NC23CCC(C(=O)O)(CC2)CC3)C(c2cccc(Cl)c2F)C2(C(=O)Nc3cc(Cl)ccc32)C12CCCCC2    97.2

-- ask Looking for the measured viability, T/C of C=CC(=O)N1CCN(c2nc(=O)n(-c3c(C)ccnc3C(C)C)c3nc(-c4c(O)cccc4F)c(F)cc23)C(C)C1 (stereo unspecified) + CCN1C(C(=O)NC23CCC(C(=O)O)(CC2)CC3)C(c2cccc(Cl)c2F)C2(C(=O)Nc3cc(Cl)ccc32)C12CCCCC2 , can you help?
-- reply 96.7

---

Test system: SYO-1 complex spheroid growth, percent test/control
Method Summary: Anticancer human tumor SYO-1 cell line growth inhibition [Asc];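 note: compound exposure lasted 7 days after spheroids grew 3 days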
Reported Conditions: curve of first compound; second compound 0.1 µM
pIC50: −log10 of the molar value.
Exercise: state measured pIC50 for each of the molecules provided.

Use these answered entries as a reference point.
Cc1nc(N2CCC3(CC2)COC(C)C3N)c(CO)nc1Sc1ccnc(N)c1Cl (centres undefined) + Cc1c(S(C)(=O)=O)c(-c2cc(F)cc(N3CCN(c4ccc(NS(=O)(=O)c5ccc(NC(CCN6CCC(C(=O)OCCCP(=O)(O)O)CC6)CSc6ccccc6)c(S(=O)(=O)C(F)(F)F)c5)cc4)CC3)c2)c(-c2ccc(Cl)cc2)n1C(C)C    < 5.52
C=CC(=O)N1CCN(c2nc(=O)n(-c3c(C)ccnc3C(C)C)c3nc(-c4c(O)cccc4F)c(F)cc23)C(C)C1 (centres undefined) + CNC(C)C(=O)NC1CN(S(=O)(=O)c2cccc(S(=O)(=O)N3CCC4CCC(C(=O)NC(c5ccccc5)c5ccccc5)N4C(=O)C(NC(=O)C(C)NC)C3)c2)CCC2CCC(C(=O)NC(c3ccccc3)c3ccccc3)N2C1=O    < 5.00
Cn1ncnc1[C@H]1c2n[nH]c(=O)c3cc(F)cc(c23)N[C@@H]1c1ccc(F)cc1 + CNC(C)C(=O)NC1CN(S(=O)(=O)c2cccc(S(=O)(=O)N3CCC4CCC(C(=O)NC(c5ccccc5)c5ccccc5)N4C(=O)C(NC(=O)C(C)NC)C3)c2)CCC2CCC(C(=O)NC(c3ccccc3)c3ccccc3)N2C1=O    < 7.00

The record that follows has no pIC50 shown yet.
-- ask Looking for the measured pIC50 of NC1CCC(NC2CC2c2ccccc2)CC1 (centres undefined) + Cc1c(S(C)(=O)=O)c(-c2cc(F)cc(N3CCN(c4ccc(NS(=O)(=O)c5ccc(NC(CCN6CCC(C(=O)OCCCP(=O)(O)O)CC6)CSc6ccccc6)c(S(=O)(=O)C(F)(F)F)c5)cc4)CC3)c2)c(-c2ccc(Cl)cc2)n1C(C)C , can you help?
-- reply < 7.00

---

System: SYO-1 complex spheroid growth, percent test/control
Method Summary: Anticancer human tumor SYO-1 cell line growth inhibition [Asc];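 note: compound exposure lasted 7 days after spheroids grew 3 days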;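 for viability, T/C: 100% = DMSO vehicle control viability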
Reported Conditions: second compound 0.316 µM; first compound 0.01 µM; stronger effect = lower value
Property: viability, T/C (%)
Give bare numbers, in %.

O=C(c1ccc(F)c(F)c1Nc1ccc(I)cc1F)N1CC(O)([C@@H]2CCCCN2)C1 + CNC(C)C(=O)NC1CN(S(=O)(=O)c2cccc(S(=O)(=O)N3CCC4CCC(C(=O)NC(c5ccccc5)c5ccccc5)N4C(=O)C(NC(=O)C(C)NC)C3)c2)CCC2CCC(C(=O)NC(c3ccccc3)c3ccccc3)N2C1=O    104
COc1c(OCCCN2CCOCC2)ccc2c3n(c(=NC(=O)c4cnc(N)nc4)nc12)CCN3 + CNC(C)C(=O)NC1CN(S(=O)(=O)c2cccc(S(=O)(=O)N3CCC4CCC(C(=O)NC(c5ccccc5)c5ccccc5)N4C(=O)C(NC(=O)C(C)NC)C3)c2)CCC2CCC(C(=O)NC(c3ccccc3)c3ccccc3)N2C1=O    122

The record that follows has no viability, T/C shown yet.
-- ask Looking for the measured viability, T/C of NC1CCC(NC2CC2c2ccccc2)CC1 (stereo not drawn) + CNC(C)C(=O)NC1CN(S(=O)(=O)c2cccc(S(=O)(=O)N3CCC4CCC(C(=O)NC(c5ccccc5)c5ccccc5)N4C(=O)C(NC(=O)C(C)NC)C3)c2)CCC2CCC(C(=O)NC(c3ccccc3)c3ccccc3)N2C1=O , can you help?
-- reply 90.3

---

Exercise: state measured viability, T/C for each of the compounds provided.
Tested on: SYO-1 complex spheroid growth, percent test/control
Method Summary: Anticancer human tumor SYO-1 cell line growth inhibition [Asc];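 note: compound exposure lasted 7 days after spheroids grew 3 days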;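 for viability, T/C: 100% = DMSO vehicle control viability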
Reported Conditions: second compound 3 µM; first compound 0.1 µM; stronger effect = lower value
Answers are plain numbers, in %.

Use these answered entries as a reference point.
O=C(c1ccc(F)c(F)c1Nc1ccc(I)cc1F)N1CC(O)([C@@H]2CCCCN2)C1 + CCN1C(C(=O)NC23CCC(C(=O)O)(CC2)CC3)C(c2cccc(Cl)c2F)C2(C(=O)Nc3cc(Cl)ccc32)C12CCCCC2    0.81
NC1CCC(NC2CC2c2ccccc2)CC1 (stereo not drawn) + CCN1C(C(=O)NC23CCC(C(=O)O)(CC2)CC3)C(c2cccc(Cl)c2F)C2(C(=O)Nc3cc(Cl)ccc32)C12CCCCC2    1.44
C=C(F)C(=O)N1CCN(c2nc(OCC3CCCN3C)nc3c2CCN(c2cccc4cccc(Cl)c24)C3)CC1CC#N (stereo not drawn) + CCN1C(C(=O)NC23CCC(C(=O)O)(CC2)CC3)C(c2cccc(Cl)c2F)C2(C(=O)Nc3cc(Cl)ccc32)C12CCCCC2    1.39
C=CC(=O)N1CCN(c2nc(=O)n(-c3c(C)ccnc3C(C)C)c3nc(-c4c(O)cccc4F)c(F)cc23)C(C)C1 (stereo not drawn) + CCN1C(C(=O)NC23CCC(C(=O)O)(CC2)CC3)C(c2cccc(Cl)c2F)C2(C(=O)Nc3cc(Cl)ccc32)C12CCCCC2    1.23
O=C(c1cc(Cc2n[nH]c(=O)c3ccccc23)ccc1F)N1CCN(C(=O)C2CC2)CC1 + CCN1C(C(=O)NC23CCC(C(=O)O)(CC2)CC3)C(c2cccc(Cl)c2F)C2(C(=O)Nc3cc(Cl)ccc32)C12CCCCC2    1.24
CCN1CCN(Cc2ccc(Nc3ncc(F)c(-c4cc(F)c5nc(C)n(C(C)C)c5c4)n3)nc2)CC1 + CCN1C(C(=O)NC23CCC(C(=O)O)(CC2)CC3)C(c2cccc(Cl)c2F)C2(C(=O)Nc3cc(Cl)ccc32)C12CCCCC2    1.88
Cn1ncnc1[C@H]1c2n[nH]c(=O)c3cc(F)cc(c23)N[C@@H]1c1ccc(F)cc1 + CCN1C(C(=O)NC23CCC(C(=O)O)(CC2)CC3)C(c2cccc(Cl)c2F)C2(C(=O)Nc3cc(Cl)ccc32)C12CCCCC2    1.16

The record that follows has no viability, T/C shown yet.
-- ask Looking for the measured viability, T/C of COc1c(OCCCN2CCOCC2)ccc2c3n(c(=NC(=O)c4cnc(N)nc4)nc12)CCN3 + CCN1C(C(=O)NC23CCC(C(=O)O)(CC2)CC3)C(c2cccc(Cl)c2F)C2(C(=O)Nc3cc(Cl)ccc32)C12CCCCC2 , can you help?
-- reply 0.55
